- Test system: LO-2 cells
- test.name: Cytotoxicity assay (CCK8)
- Format: cell-based, human
- condition.description: Homo sapiens, L02, 24 h, read-out: concentration that led to a 50% decrease of cell viability, LO-2 cells, 24 h, CCK8
measurement.name: IC50

>  <molecule>
CC1=C(O)C(=O)C=C2C1=CC=C1[C@@]2(C)CC[C@@]2(C)[C@@H]3C[C@](C)(C(=O)O)CC[C@]3(C)CC[C@]12C [Compound 18, Celastrol]

>  <measurement.name>
IC50

>  <value.measured>
2.4 µM

$$$$

---

- Test system: LO-2 cells
- test.name: Cytotoxicity assay (CCK8)
- Assay type: cell-based, human
- condition.description: Homo sapiens, L02; LO-2 cells, 24 h, CCK8; read-out: concentration that led to a 50% decrease of cell viability
pIC50: −log10 of the molar value.
measurement.name: pIC50

>  <molecule>
Cc1ccc(C(=O)c2cc(O)c(O)c([N+](=O)[O-])c2)cc1 [Tolcapone, tolcapone, reference compound]

>  <value.measured>
4.42 to 4.55

$$$$
>  <molecule>
C=C(C)[C@@H]1CC[C@]2(C(=O)O)CC[C@]3(C)[C@H](CC[C@@H]4[C@@]5(C)CC[C@H](O)C(C)(C)[C@@H]5CC[C@]43C)[C@@H]12 [Compound 11, Betulinic acid]

>  <value.measured>
< 4.00

$$$$
>  <molecule>
CCN(CC)C(=O)/C(C#N)=C/c1cc(O)c(O)c([N+](=O)[O-])c1 [Entacapone, entacapone, reference compound]

>  <value.measured>
< 4.00

$$$$
>  <molecule>
CC1(C)CC[C@]2(C(=O)O)CC[C@]3(C)C(=CC[C@@H]4[C@@]5(C)CC[C@H](O)C(C)(C)[C@@H]5CC[C@]43C)[C@@H]2C1 [Compound 1, Oleanic acid]

>  <value.measured>
< 4.00

$$$$
